Origin of values: patent US12139520B2

# hAM1R EC50 (cAMP) annotations
# Assayed Target: hAM1R (human, UniProt Q16602)
# Protocol Text: cell-based or functional assay
Numbered stars: 1 amine (or outer) side, 2 acyl side, 3 side chain; on linkers, the order of the positions; unused ones are H or OH. Bridge positions count the residues as written; N and C are the ends. Square brackets hold non-standard residues; d marks the D form. Ends that are not written are not given here. * marks the point of attachment. C20 diacid = O=C(O)CCCCCCCCCCCCCCCCCCC(=O)*; γGlu = O=C(O)[C@H](CCC(=O)[*:2])N[*:1]; Hyp = O=C(O)[C@@H]1C[C@@H](O)CN1; Cit = NC(=O)NCCC[C@H](N)C(=O)O
Endpoint: hAM1R EC50 (cAMP) (µM)

Binder	Modifier Sign	Recorded Measurement
GCRFGTCTVQ[Cit]LAHQIYQFTDKDKDNVAPRSNISPQG[Hyp]-NH2 (disulfide 2-7 (inferred); ends not checked) [SEQ ID NO: 300]	>	5
KCNTATCTVQRLAHQIYFTDKDKDNVAPPTNVGSNG[Hyp]-NH2 (disulfide 2-7 (inferred); ends not checked) [SEQ ID NO: 181]	>	5
GCRTGTCTVQRLAHQIYQFTDKDKDNVAPRTNVGPNGY [SEQ ID NO: 84]	=	2.98
{C20 diacid-γGlu}-KCNTATCTVQRLAHQIYQFSDKDKDNVAPPTNVGSNG[Hyp]-NH2 (disulfide 2-7 (inferred); ends not checked) [SEQ ID NO: 57]	=	0.59
{C20 diacid-γGlu}-KCNTATCTVQRLAHQIAQFTNKDKDNVAPPTNVGSNG[Hyp]-NH2 (disulfide 2-7 (inferred); not fully specified; ends not checked) [SEQ ID NO: 95]	>	5
GCRIGTCTVQRLAHQIYQFTDKFKDNVAPRSKISPQT[Hyp]-NH2 (disulfide 2-7 (inferred); ends not checked) [SEQ ID NO: 147]	=	3.11
GCRTGTCTVQRLAHQIYQFTDKDKDNVAPRSNVSPQGY [SEQ ID NO: 183]	=	2.98
GCRFGTCTVQ[Cit]LAHQIYQFTDKDKDNVAPRTNISPQG[Hyp]-NH2 (disulfide 2-7 (inferred); ends not checked) [SEQ ID NO: 291]	>	5
{C20 diacid-γGlu}-KCNTSTCTVQRLAHQIAQFTDKDKDPVAPPTNVGSNG[Hyp]-NH2 (disulfide 2-7 (inferred); not fully specified; ends not checked) [SEQ ID NO: 88]	>	5
